# Assay Protocol: in vivo
# Condition Parameters: male, Wistar Han, rat, whole blood, intramuscular; day 7; single IM Example 9B 20 mg/kg equivalent of EFdA; read-out: Mean concentration of Example 9B
Assay Endpoint: concentration at 7 day
The answer consists of two parts: a number and, after it, its unit.

For record C#C[C@]1(COP(=O)(N[C@@H](Cc2ccccc2)C(=O)OCCCCCCCCCC)OCC(=O)OCCCCCCCCCC)O[C@@H](n2cnc3c(N)nc(F)nc32)C[C@@H]1O (single isomer, unassigned) the listed concentration at 7 day is 0.663 ng/mL

---

# Assay Protocol: EFdA Rat PK Studies (subcutaneous and intramuscular groups), plasma concentration by LC-MS/MS
# Assay type: in vivo, Wistar Han rats
# Condition Parameters: male, Wistar Han, rat, plasma, sc, 20 mg/kg, Day 6; SC 20 mg/kg; plasma; read-out: Assayed Concentrations of EFdA, Mean
Assay Endpoint: concentration at 6 day (ng/mL)
Please state the figure in ng/mL; there is no need to write the unit.

concentration at 6 day for C#C[C@]1(CO)O[C@@H](n2cnc3c(N)nc(F)nc32)C[C@@H]1O is 0.04

---

# Assay Protocol: EFdA Rat PK Studies (subcutaneous and intramuscular groups), plasma concentration by LC-MS/MS
# Type: in vivo, Wistar Han rats
# Condition Parameters: male, Wistar Han, rat, plasma, sc, 20 mg/kg, Day 25; SC 20 mg/kg; plasma; read-out: Assayed Concentrations of EFdA, individual rats
Assay Endpoint: concentration at 25 day (ng/mL)
# unit: ng/mL | format: bare number

Input C#C[C@]1(CO)O[C@@H](n2cnc3c(N)nc(F)nc32)C[C@@H]1O . Output concentration at 25 day: 0.221

---

# Assay Protocol: in vivo
# Condition Parameters: male, Wistar Han, rat, in vivo; day 42; single IM Example 39A 58 mg/kg; read-out: Mean concentration of Example 39A
Assay Endpoint: concentration at 42 day (ng/mL)
// note: answer is a bare numeric in ng/mL

// recorded concentration at 42 day for C#C[C@]1(COP(=O)(N[C@@H](Cc2cc(F)cc(F)c2)C(=O)OCCCCCCCCCCCCCCCC)Oc2ccccc2)O[C@@H](n2cnc3c(N)nc(F)nc32)C[C@@H]1O (single isomer, unassigned) [Example 39A] : 2.61

---

# Assay Protocol: in vivo
# Condition Parameters: male, Wistar Han, rat, whole blood, intramuscular; day 49; single IM Example 11A 20 mg/kg equivalent of EFdA; read-out: Mean concentration of Example 11A
Assay Endpoint: concentration at 49 day (ng/mL)
API: value field is a number in ng/mL; no unit string.

// field: concentration at 49 day; key: C#C[C@]1(COP(=O)(N[C@@H](Cc2ccccc2)C(=O)OCCCCCCCCCCCC)OCC(=O)OCCCCCCCCCCCC)O[C@@H](n2cnc3c(N)nc(F)nc32)C[C@@H]1O (single isomer, unassigned) [Example 11A] ; value = 0.929

---

# Assay Protocol: in vivo
# Condition Parameters: male, Wistar Han, rat, in vivo; day 63; single IM Example 2A 56 mg/kg; read-out: Mean concentration of Example 2A
Assay Endpoint: concentration at 63 day

Lab book: concentration at 63 day of C#C[C@]1(COP(=O)(N[C@@H](Cc2ccccc2)C(=O)OCCCCCCCCCCCCCCCC)Oc2ccccc2)O[C@@H](n2cnc3c(N)nc(F)nc32)C[C@@H]1O (single isomer, unassigned) [Example 2A] noted as 1.05 ng/mL

---

# Assay Protocol: EFdA Rat PK Studies (subcutaneous and intramuscular groups), plasma concentration by LC-MS/MS
# Format: in vivo, Wistar Han rats
# Condition Parameters: male, Wistar Han, rat, plasma, sc, 20 mg/kg, 72 hr; SC 20 mg/kg; plasma; read-out: Assayed Concentrations of EFdA, individual rats
Assay Endpoint: concentration at 72 h (ng/mL)
Just the number in ng/mL, nothing appended.

Looking up C#C[C@]1(CO)O[C@@H](n2cnc3c(N)nc(F)nc32)C[C@@H]1O , I see its concentration at 72 h listed as 0.251

---

# Assay Protocol: in vivo
# Condition Parameters: male, Wistar Han, rat, in vivo; day 1; single IM Example 2B 20 mg/kg; read-out: Mean concentration of Example 2B
# Excerpt: General Protocol for Prodrugs Rat PK Studies Conducted at ChemPartner, China A total of three naïve male Wistar Han rats, 200-250 g, were received from Beijing VR Laboratory Animal Co. LTD. Following an acclimation period, the animals were assigned to the study based on acceptable health as determined by a staff veterinarian and catheter patency. Fasting of the animals before or after dosing was not required. […]
Assay Endpoint: concentration at 1 day (ng/mL)
Number in ng/mL, nothing else.

Per the records, this molecule ( C#C[C@]1(COP(=O)(N[C@@H](Cc2ccccc2)C(=O)OCCCCCCCCCCCCCCCC)Oc2ccccc2)O[C@@H](n2cnc3c(N)nc(F)nc32)C[C@@H]1O (single isomer, unassigned) ) has concentration at 1 day equal to 0.514

---

# Assay Protocol: EFdA Rat PK Studies (subcutaneous and intramuscular groups), plasma concentration by LC-MS/MS
# Format: in vivo, Wistar Han rats
# Condition Parameters: male, Wistar Han, rat, plasma, intramuscular, 20 mg/kg, 1 hr; IM 20 mg/kg; plasma; read-out: Assayed Concentrations of EFdA, individual rats
Assay Endpoint: concentration at 1 h (ng/mL)
// units = ng/mL; emit number, no label

Quick note, concentration at 1 h for C#C[C@]1(CO)O[C@@H](n2cnc3c(N)nc(F)nc32)C[C@@H]1O landed at 957

---

# Assay Protocol: in vivo
# Condition Parameters: male, Wistar Han, rat, in vivo; day 63; single IM Example 1B 62 mg/kg; read-out: Mean concentration of Example 1B
Assay Endpoint: concentration at 63 day (ng/mL)
Numbers only here, please. The scale is ng/mL.

response.value for C#C[C@]1(COP(=O)(N[C@@H](Cc2ccccc2)C(=O)OCCCCCCCCCCCCCCCCCCCCCC)Oc2ccccc2)O[C@@H](n2cnc3c(N)nc(F)nc32)C[C@@H]1O (single isomer, unassigned) [Example 1B] (field: concentration at 63 day) = 0.748

---

# Assay Protocol: in vivo
# Condition Parameters: male, Wistar Han, rat, in vivo; day 1; single IM Example 18A 54 mg/kg; read-out: Mean concentration of Example 18A
Assay Endpoint: concentration at 1 day (ng/mL)
I only need the number, in ng/mL, no unit after it.

Per the record, C#C[C@]1(COP(=O)(N[C@@H](Cc2ccccc2)C(=O)OCCCCCCCCCCCCCC)Oc2ccccc2)O[C@@H](n2cnc3c(N)nc(F)nc32)C[C@@H]1O (single isomer, unassigned) [Example 18A] has concentration at 1 day of 2.47

---

# Assay Protocol: in vivo
# Condition Parameters: male, Wistar Han, rat, in vivo; day 77; single IM Example 1B 62 mg/kg; read-out: Mean concentration of Example 1B
Assay Endpoint: concentration at 77 day (ng/mL)
Response body: numeric value in ng/mL, unit text excluded.

C#C[C@]1(COP(=O)(N[C@@H](Cc2ccccc2)C(=O)OCCCCCCCCCCCCCCCCCCCCCC)Oc2ccccc2)O[C@@H](n2cnc3c(N)nc(F)nc32)C[C@@H]1O (single isomer, unassigned) has a reported concentration at 77 day of 1.55

---

# Assay Protocol: in vivo
# Condition Parameters: male, Wistar Han, rat, whole blood, intramuscular; day 1; single IM Example 9B 20 mg/kg equivalent of EFdA; read-out: Mean concentration of Example 9B
Assay Endpoint: concentration at 1 day
Could you write the number and then its unit?

Measured concentration at 1 day of C#C[C@]1(COP(=O)(N[C@@H](Cc2ccccc2)C(=O)OCCCCCCCCCC)OCC(=O)OCCCCCCCCCC)O[C@@H](n2cnc3c(N)nc(F)nc32)C[C@@H]1O (single isomer, unassigned) : 3.01 ng/mL

---

# Assay Protocol: in vivo
# Condition Parameters: male, Wistar Han, rat, in vivo; day 1; single IM Example 20A 57 mg/kg; read-out: Mean concentration of Example 20A
Assay Endpoint: concentration at 1 day (ng/mL)
Record the value in ng/mL, omitting the unit from your answer.

concentration at 1 day for C#C[C@]1(COP(=O)(N[C@@H](Cc2ccccc2)C(=O)OCCCCCCCCCCCCCCCCC)Oc2ccccc2)O[C@@H](n2cnc3c(N)nc(F)nc32)C[C@@H]1O (single isomer, unassigned) [Example 20A] is 15.3

---

# Assay Protocol: in vivo
# Condition Parameters: male, Wistar Han, rat, in vivo; day 21; single IM Example 43A 60 mg/kg; read-out: Mean concentration of Example 43A
Assay Endpoint: concentration at 21 day (ng/mL)
Express the result in ng/mL but write the number alone.

Reported concentration at 21 day of C#C[C@]1(COP(=O)(N[C@@H](Cc2ccccc2)C(=O)OCCCCCCCCCCCCCCCCCCCC)Oc2ccccc2)O[C@@H](n2cnc3c(N)nc(F)nc32)C[C@@H]1O (single isomer, unassigned) [Example 43A] : 22.1

Reference source: patent US20230151049A1
